Would you kindly list IC50 for each of these compounds?
Biological target: Indoleamine 2,3-dioxygenase 1 (Homo sapiens, UniProt P14902)
Sequence (P14902 whole entry): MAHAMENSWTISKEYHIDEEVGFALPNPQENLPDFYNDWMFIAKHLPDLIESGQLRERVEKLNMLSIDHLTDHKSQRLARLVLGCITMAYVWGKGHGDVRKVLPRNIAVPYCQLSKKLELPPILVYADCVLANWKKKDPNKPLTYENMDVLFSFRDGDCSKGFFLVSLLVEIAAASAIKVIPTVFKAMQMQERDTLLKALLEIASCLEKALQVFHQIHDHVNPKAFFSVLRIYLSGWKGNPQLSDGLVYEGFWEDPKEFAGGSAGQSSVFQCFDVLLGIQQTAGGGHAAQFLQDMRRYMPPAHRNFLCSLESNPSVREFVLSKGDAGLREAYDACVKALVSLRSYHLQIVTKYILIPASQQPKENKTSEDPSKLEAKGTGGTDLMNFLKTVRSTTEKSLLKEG
Assay: Inhibition of recombinant human IDO1 assessed as reduction in kynurenine formation using L-tryptophan as substrate incubated for 45 mins by microplate reader assay

[Q] Given O=C(O)c1cc2c(Nc3ccc(Cl)c(Cl)c3)ccc(F)c2[nH]1 , report its IC50 on Indoleamine 2,3-dioxygenase 1 (Homo sapiens, UniProt P14902).
[A] > 100 µM

[Q] Given O=C(O)c1cc2c(Nc3ccc(F)c(Cl)c3)ccc(Cl)c2[nH]1 , report its IC50 on Indoleamine 2,3-dioxygenase 1 (Homo sapiens, UniProt P14902).
[A] > 100 µM

[Q] Given O=C(O)c1cc2c(Nc3ccc(F)c(Cl)c3)cc([N+](=O)[O-])cc2[nH]1 , report its IC50 on Indoleamine 2,3-dioxygenase 1 (Homo sapiens, UniProt P14902).
[A] > 100 µM

[Q] Given CC(=O)Nc1cc(Nc2ccc(F)c(F)c2)c2cc(C(=O)O)[nH]c2c1 , report its IC50 on Indoleamine 2,3-dioxygenase 1 (Homo sapiens, UniProt P14902).
[A] 1.17 µM

[Q] Given CCCOc1cc(Nc2cc(NC(C)=O)cc3[nH]c(C(=O)O)cc23)ccc1F , report its IC50 on Indoleamine 2,3-dioxygenase 1 (Homo sapiens, UniProt P14902).
[A] 1.48 µM

[Q] Given O=C(Cc1ccc(F)c(Cl)c1)Nc1ccc(F)c2[nH]c(C(=O)O)cc12 , report its IC50 on Indoleamine 2,3-dioxygenase 1 (Homo sapiens, UniProt P14902).
[A] > 100 µM

[Q] Given COc1cc(Cl)cc(Nc2ccc(F)c3[nH]c(C(=O)O)cc23)c1 , report its IC50 on Indoleamine 2,3-dioxygenase 1 (Homo sapiens, UniProt P14902).
[A] > 100 µM

[Q] Given COc1ccc(C(=O)O)c(Nc2ccc(F)c3[nH]c(C(=O)O)cc23)c1 , report its IC50 on Indoleamine 2,3-dioxygenase 1 (Homo sapiens, UniProt P14902).
[A] > 100 µM

[Q] Given CC(=O)Nc1cc(Nc2ccc(F)c(OC(C)C)c2)c2cc(C(=O)O)[nH]c2c1 , report its IC50 on Indoleamine 2,3-dioxygenase 1 (Homo sapiens, UniProt P14902).
[A] 3.09 µM

[Q] Given CCNC1=C/C(=N\c2ccc(F)c(Cl)c2)c2cc(C(=O)O)[nH]c2C1=O , report its IC50 on Indoleamine 2,3-dioxygenase 1 (Homo sapiens, UniProt P14902).
[A] 0.018 µM

[Q] Given O=C(O)c1cc2c(Nc3ccc(C(F)(F)F)c(Cl)c3)ccc(F)c2[nH]1 , report its IC50 on Indoleamine 2,3-dioxygenase 1 (Homo sapiens, UniProt P14902).
[A] > 100 µM

[Q] Given O=C(Nc1ccc(F)c(Cl)c1)Nc1ccc(F)c2[nH]c(C(=O)O)cc12 , report its IC50 on Indoleamine 2,3-dioxygenase 1 (Homo sapiens, UniProt P14902).
[A] > 100 µM

[Q] Given Cc1cc(Nc2ccc(F)c(Cl)c2)c2cc(C(=O)O)n(C)c2c1 , report its IC50 on Indoleamine 2,3-dioxygenase 1 (Homo sapiens, UniProt P14902).
[A] > 100 µM

[Q] Given CC(=O)Nc1cc(Nc2ccc(F)cc2)c2cc(C(=O)O)[nH]c2c1 , report its IC50 on Indoleamine 2,3-dioxygenase 1 (Homo sapiens, UniProt P14902).
[A] 5.28 µM

[Q] Given CCOc1cc(Nc2cc(NC(C)=O)cc3[nH]c(C(=O)O)cc23)ccc1F , report its IC50 on Indoleamine 2,3-dioxygenase 1 (Homo sapiens, UniProt P14902).
[A] 2.2 µM

[Q] Given Fc1ccc(Nc2ccc(F)c3[nH]ccc23)cc1Cl , report its IC50 on Indoleamine 2,3-dioxygenase 1 (Homo sapiens, UniProt P14902).
[A] > 100 µM

[Q] Given COc1cc(Nc2ccc(F)c3[nH]c(C(=O)O)cc23)cc(OC)c1OC , report its IC50 on Indoleamine 2,3-dioxygenase 1 (Homo sapiens, UniProt P14902).
[A] 22.2 µM

[Q] Given O=C(O)c1cc2c(Nc3ccc(F)c(Cl)c3)cccc2[nH]1 , report its IC50 on Indoleamine 2,3-dioxygenase 1 (Homo sapiens, UniProt P14902).
[A] > 100 µM

[Q] Given CC(=O)Nc1ccc(Nc2ccc(F)c(Cl)c2)c2cc(C(=O)O)[nH]c12 , report its IC50 on Indoleamine 2,3-dioxygenase 1 (Homo sapiens, UniProt P14902).
[A] > 100 µM

[Q] Given COc1cc(Nc2ccc(F)c(Cl)c2)c2cc(C(=O)O)[nH]c2c1 , report its IC50 on Indoleamine 2,3-dioxygenase 1 (Homo sapiens, UniProt P14902).
[A] > 100 µM

[Q] Given COc1cc(Nc2cc(NC(C)=O)cc3[nH]c(C(=O)O)cc23)cc(OC)c1OC , report its IC50 on Indoleamine 2,3-dioxygenase 1 (Homo sapiens, UniProt P14902).
[A] 3.18 µM

[Q] Given O=C(O)c1cc2c(Nc3ccc(F)c(Cl)c3)ccc([N+](=O)[O-])c2[nH]1 , report its IC50 on Indoleamine 2,3-dioxygenase 1 (Homo sapiens, UniProt P14902).
[A] > 100 µM

###

Would you kindly list pIC50 for each of these compounds?
Target: Tryptophan 2,3-dioxygenase (Homo sapiens, UniProt P48775)
Sequence (P48775 whole entry): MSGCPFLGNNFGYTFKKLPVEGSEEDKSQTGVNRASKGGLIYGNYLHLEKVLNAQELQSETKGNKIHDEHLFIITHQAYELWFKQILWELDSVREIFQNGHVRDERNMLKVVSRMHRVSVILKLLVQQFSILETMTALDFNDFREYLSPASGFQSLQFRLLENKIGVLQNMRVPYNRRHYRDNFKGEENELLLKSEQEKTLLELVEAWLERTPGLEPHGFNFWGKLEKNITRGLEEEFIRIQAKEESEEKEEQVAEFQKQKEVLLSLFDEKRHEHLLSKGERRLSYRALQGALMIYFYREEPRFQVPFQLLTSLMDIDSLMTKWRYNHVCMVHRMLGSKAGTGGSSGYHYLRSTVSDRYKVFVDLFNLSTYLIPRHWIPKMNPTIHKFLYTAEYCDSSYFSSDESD
Assay: Inhibition of recombinant human TDO assessed as reduction in kynurenine formation using L-tryptophan as substrate incubated for 45 mins by microplate reader assay
Interpret pIC50 as the negative base-10 log of the concentration measured in mol/L.

[Q] Find the measured pIC50 of O[C@H](C[C@H]1c2c(F)cccc2-c2cncn21)[C@H]1CC[C@H](O)CC1 [NAVOXIMOD] and report it.
[A] 6.10

[Q] Find the measured pIC50 of CC(=O)Nc1cc(Nc2ccc(F)c(F)c2)c2cc(C(=O)O)[nH]c2c1 and report it.
[A] 5.81

[Q] Find the measured pIC50 of Cc1cc(Nc2ccc(F)c(Cl)c2)c2cc(C(=O)O)[nH]c2c1 and report it.
[A] 4.65

[Q] Find the measured pIC50 of COc1cc(Nc2ccc(F)c3[nH]c(C(=O)O)cc23)ccc1F and report it.
[A] 4.50

[Q] Find the measured pIC50 of O=C(O)c1cc2c(Nc3ccc(F)c(OC(F)(F)F)c3)ccc(F)c2[nH]1 and report it.
[A] 4.78

[Q] Find the measured pIC50 of COc1cc(Nc2cc(NC(C)=O)cc3[nH]c(C(=O)O)cc23)cc(OC)c1OC and report it.
[A] 5.15

[Q] Find the measured pIC50 of COc1ccc(Nc2cc(NC(C)=O)cc3[nH]c(C(=O)O)cc23)cn1 and report it.
[A] 5.44

[Q] Find the measured pIC50 of COc1ccc(Nc2ccc(F)c(Cl)c2)c2cc(C(=O)O)[nH]c12 and report it.
[A] 4.71

###

Would you kindly list pIC50 for each of these compounds?
Target: Indoleamine 2,3-dioxygenase 1 (Homo sapiens)
Experiment: Inhibition of recombinant human IDO1 assessed as reduction in kynurenine formation using L-tryptophan as substrate incubated for 45 mins by microplate reader assay
Interpret pIC50 as the negative base-10 log of the concentration measured in mol/L.

[Q] Find the measured pIC50 of CC(=O)Nc1cc(Nc2ccc(F)c(C)c2)c2cc(C(=O)O)[nH]c2c1 and report it.
[A] 5.74

[Q] Find the measured pIC50 of CC(=O)Nc1cc(Nc2ccc(F)c(OCC3CC3)c2)c2cc(C(=O)O)[nH]c2c1 and report it.
[A] 5.51

[Q] Find the measured pIC50 of CC(=O)Nc1cc(Nc2ccc(F)c(OCc3ccccc3)c2)c2cc(C(=O)O)[nH]c2c1 and report it.
[A] 5.00

[Q] Find the measured pIC50 of O=C(O)c1cc2c(Nc3ccc(F)c(OC(F)(F)F)c3)ccc(F)c2[nH]1 and report it.
[A] 4.79

[Q] Find the measured pIC50 of COc1cc(Nc2cc(NC(C)=O)cc3[nH]c(C(=O)O)cc23)ccc1F and report it.
[A] 5.91

###

Target: UniProtKB P48775
Assay: Inhibition of recombinant human TDO assessed as reduction in kynurenine formation using L-tryptophan as substrate incubated for 45 mins by microplate reader assay
pIC50: −log10 of the molar value.
Decide using pIC50: a value greater than or equal to 5 is 1 (yes), a smaller one is 0 (no).

[Q] Could you verify whether the entry O=C(O)c1cc2c(Nc3ccc(F)c(Cl)c3)ccc(F)c2[nH]1 shows pIC50 of no less than 5?
[A] 0 (no)

[Q] Could you verify whether the entry CC(=O)Nc1cc(Nc2ccc(OC(F)F)cc2)c2cc(C(=O)O)[nH]c2c1 shows pIC50 of no less than 5?
[A] 1 (yes)

[Q] Could you verify whether the entry CCCOc1cc(Nc2cc(NC(C)=O)cc3[nH]c(C(=O)O)cc23)ccc1F shows pIC50 of no less than 5?
[A] 1 (yes)

[Q] Could you verify whether the entry O=C(O)c1cc2c(Nc3cc(Br)ccc3F)ccc(F)c2[nH]1 shows pIC50 of no less than 5?
[A] 0 (no)

[Q] Could you verify whether the entry CC(=O)Nc1cc(Nc2ccc(F)c(OCc3ccccc3)c2)c2cc(C(=O)O)[nH]c2c1 shows pIC50 of no less than 5?
[A] 1 (yes)

[Q] Could you verify whether the entry CC(=O)Nc1cc(Nc2ccc(F)c(OC(C)C)c2)c2cc(C(=O)O)[nH]c2c1 shows pIC50 of no less than 5?
[A] 1 (yes)

[Q] Could you verify whether the entry CC(=O)Nc1cc(Nc2ccc(OC(F)(F)F)cc2)c2cc(C(=O)O)[nH]c2c1 shows pIC50 of no less than 5?
[A] 1 (yes)

[Q] Could you verify whether the entry CCOc1cc(Nc2cc(NC(C)=O)cc3[nH]c(C(=O)O)cc23)ccc1F shows pIC50 of no less than 5?
[A] 1 (yes)

[Q] Could you verify whether the entry O=C(O)c1cc2c(Nc3ccc(F)c(Cl)c3)cc([N+](=O)[O-])cc2[nH]1 shows pIC50 of no less than 5?
[A] 0 (no)
